- experimental details: soluble fraction after stress (log2 fold change); higher = more stays soluble; pooled small domains, quantitative proteomics
- reported conditions: stress: 50 degC
Use 0.07 as the dividing line for soluble fraction (log2), with the line itself on the true (1) side and lower values as false (0).

Task: Hi team, for `HMPSKTFYNLSQEKQQKIIDASEKEFSNNLYQDVSLNQIIKNSNISRGSFYMYFTDKEDLYFYLLNEY` , is the recorded soluble fraction (log2) at or above 0.07?
Result: true (1)

Task: Has `HMSNIQLAANLQRLRKDHHFTQTQFSKKLNISRQAYSNYETGKRIPDLDIIIRIANIYHISLENLL` a recorded soluble fraction (log2) greater than or equal to 0.07?
Result: false (0)

Task: Could you verify whether the entry `HMKIEDSNTIKLKANQAYKTHYYSEAIKLYDELLTKYEPNSEAIKLNLAHAHFKAKGFAAASKLYT` shows soluble fraction (log2) of no less than 0.07?
Result: true (1)

Task: Check the entry `HMDRRDEYHQHLLRLLLSGEIRDKDELQRRKVKLSGEYGLAGVPKNSETLALVPPDRLPEVLDILR` : does soluble fraction (log2) equal or exceed 0.07?
Result: false (0)

Task: Is reported soluble fraction (log2) greater than or equal to 0.07 here: `HMNIGEKIKKIRTQQNKSTYELADIINKNGFKISQSAISKIENGRKKIDIETLEEIAKALDIEVDLLIT`
Result: false (0)

* * *

- experimental details: soluble fraction after stress (log2 fold change); higher = more stays soluble; pooled small domains, quantitative proteomics
- reported conditions: stress: 50 degC
observable: soluble fraction (log2)
The response must contain the number and no unit.

Task: Using the record for `HMQRAEQLPAELAAVFRAETEAWGFFERQPPGYQRVAIHWVASAKQEATRLRRLAKLIEESAAGRR` , state its measured soluble fraction (log2).
Result: -1.7

Task: State, in one line, measured soluble fraction (log2) of `HMKEKLGEFENVFLSVDELQKLKSKLGAETESYIERLSNYIASSGKKYKSHYATILSWTQKDTK`
Result: -0.462

Task: Answer with reported soluble fraction (log2) of `HMGLDNEGFERLRQKITRLLSEEALPVKELVDSFASKMRQEVLETLAFLQQEGVIEEKNGKLFLK`
Result: 0.0365

Task: Tell me soluble fraction (log2) reported for `HMIEGEQVRLLRLLERQEGGMLPLGDKSPASDILLLTGMSKKTFKMAVGALYKAQMITMTPTSIKLVK`
Result: -0.684

Task: Output soluble fraction (log2) of `HMAKPVKSPLPGSVIKVAVKVGQQIKRGDLLLTLESMKMENSILAEKDGVVKNIHVQAGQSVMQDDLLLDI`
Result: 0.0752

Task: Provide one value: measured soluble fraction (log2) of `HMNEIYHQIKVDNVSDDDISLFQYSGIEFDHADYRRGEYIEFAISNRDLSILNNLGYEYQVVHH`
Result: -0.757

Task: Please indicate soluble fraction (log2) recorded for `HMEPESTMIEISETLTNERLDRYLATKLPNVSRGGIQRLLREGNILVNGKKAKPTQHPVAGQKIEITWPNP`
Result: 0.0857

Task: Indicate the recorded soluble fraction (log2) value for this sequence: `HMKLKHANGNHPLTQQEKQNMIEEAAKHYGDYMTALGFDWKQDPNSSDTPMRVAKAFVNDLAEGVY`
Result: 0.0454

Task: Respond only with soluble fraction (log2) recorded for `HMVAISNTSGLAGVAYWIQSNIPKGIDIRKDNPGIVTIKNWIDEEYRKGRTTTISEEEMFKLVREYMPEL`
Result: -1.77

Task: // Input: `HMSRVFSPSELEIRHAQDVFQALEEAKRQGKGAVSLNGKMIDAPIVARAKLVLEAAAAIYGED` . Output its soluble fraction (log2) only.
Result: -0.362

Task: Tell me its soluble fraction (log2) given `HMKFYKMIDESDEKIENPEIMIFQIIELVSSTTYSAIINKEPVDVETLKPYLYQTIRTIIINHQS` as the entry.
Result: 0.144

Task: Identify measured soluble fraction (log2) associated with `HMLPNLWVMGPGDHLWRVAEVAMTKHLGRPVANHEIDGYWRRLVALNRESLIDPDNPDLVFAGQVIELPPF`
Result: -2.32

Task: Return the recorded soluble fraction (log2) value; entry: `HMKMLSIQRREAIRALLLEKESITIAEVMEKFQISVETARRDFDALADEGFLNKVYGGATLKK`
Result: -1.37

Task: Report soluble fraction (log2) for `HMGEIVVPDLIGKSLTEATRILSDSTLTVGKVNYQISSTLLPNTVLDQYPAPGNKLNSGNTVDLFITKE`
Result: -0.0436

* * *

- experimental details: soluble fraction after stress (log2 fold change); higher = more stays soluble; pooled small domains, quantitative proteomics
- reported conditions: stress: 50 degC
Rule: 1 for soluble fraction (log2) not less than -1, 0 for anything less.

Task: soluble fraction (log2) >= -1 for `HMIGAKVLVNGQLHRDSYGEGPGQTESNATRLVNYINMKGSHPYHVTTLDGGWRGWVTADSVQV` ?
Result: 1

Task: Hi, just wondering whether `HMDGDVAVKGGDGVLEVRLANAANVRVYNLAGRLMADYTGTELHMPLPKGVYMVVAGDNRTKVVV` shows soluble fraction (log2) of -1 or higher.
Result: 1

Task: Dear colleague, could you confirm whether `HMNDYIGVDRAKEIALNHARMNESDVQFAKAKLENDDGVVEYEIEFYFGRTEYDYTIDAVSGNIIEYDVEY` has soluble fraction (log2) at or above -1?
Result: 0

Task: Check if soluble fraction (log2) >= -1 (inclusive). Item: `HMFYNELMNFIVYKDSQKIGKIVNINDKLPQPVFEVLINDKKFMVPIHDDFIEKIDKEKKSIHIVIPDGLL`
Result: 1

Task: Please check the record `HMEALSAREIEILQALETGASNRELAKMLFISEATVKTHLVHIYQKLGVGTRTAAITEARERRV` and state if its soluble fraction (log2) is at or above -1.
Result: 0

Task: // inclusive: soluble fraction (log2) at least -1? input: `HMDSIQMKNNSILYYGNTAGYLDAKRNTAVVDPMFRTDEMESYLSEQKGLSVEWASGTYDRLT`
Result: 1

Task: Is reported soluble fraction (log2) greater than or equal to -1 here: `HMPQPDVIEVRQGIVTGMRPDRRTGWLRDEEDAAGEPKSFSIDVITPKGRTPGKGAVVTYTLTNGKITEVK`
Result: 1

Task: Decide: is the reported value of soluble fraction (log2) for `HMGDIMLLFKENGKVYFLVGNQYTYVKNPTELSAIKTMMKQAGYDTHEHTNTTQVAYIKRLATE` equal to or greater than -1?
Result: 0

Task: Quick check: does `HMNLDYKQFQVFNNIETLNTFTNLLSDNKIDFEVENNSKIFDPSFANNDFEKEYIVKIHPNDFEKVY` have soluble fraction (log2) greater than or equal to -1?
Result: 1

Task: I'd appreciate it if you could say whether `HMAVGDMISKLRTAANMSQEQFAELFGVTRQSVQKWENSFSVPELEKLIKISKYFDVSLDALVLRSDARVT` has soluble fraction (log2) at least equal to -1.
Result: 0

Task: Hi, just wondering whether `HMGVSLNELAYRRFKQALVTLSYKPGEYLNTAQVMNDLDMGRTPINQAIHRLANEGLLQVIPRKGVMVS` shows soluble fraction (log2) of -1 or higher.
Result: 0

Task: Does the reported soluble fraction (log2) for `HMNSLQNNLKQARTRVGLTQGVLASQAGISRQAYSTLESGSANPSTEVALRLAQALQERVELLFYLPER` fall at or above the -1 mark?
Result: 1

Task: Decide: is the reported value of soluble fraction (log2) for `HMVQARDQNIEEGRQLVLRELDRLDLVNESLTDVAADMNMKSVEDMYAAIGAGDLRVGQVVHAVLKRAD` equal to or greater than -1?
Result: 1

Task: Hi team, for `HMDPVILDINSVKALLGISNKADFMAELSRLVVTEGDKKMIIPLAKEVGIDNVAVYKRNEIENISNYK` , is the recorded soluble fraction (log2) at or above -1?
Result: 1

Task: # bool: soluble fraction (log2) of `HMAPDDTAVWSAFIGWFRTAPDGPNPLGAYAAKLGEEGLDAAEVGRRMTVIVRLFAEKPEGAEVFYDRTYA` >= -1
Result: 1

Task: // inclusive: soluble fraction (log2) at least -1? input: `HMSILEIFGRNVQKYRKEQRLSQEKLAEYAGLHRTYIGMIERAEKNITLVNIEKIAKALNINLTKLLE`
Result: 0

Task: Form field: soluble fraction (log2) at least -1? Entry: `HMKSKNRLTKSYLDSIPGVGRKRKSILLRYFGSIDQIKRASSEDIANVPGIGKITSDLVYNYFNQ`
Result: 1

Task: In plain terms: is recorded soluble fraction (log2) at least -1 for `HMEDVTLSLVVGEDLDGERLDVFLTWKLDRTRSQVQALIRDGKVRLEQGQRARPSMVVRSGMGISVSLEPR` ?
Result: 0

Task: Hi, just wondering whether `HMGGVTVQNRETHVNSTVNVRSEQTTESERVALAYQGDAITQIESYENGWSKVEYKGLSGYVMTEYL` shows soluble fraction (log2) of -1 or higher.
Result: 1

Task: Does the sequence `HMGYDVAEVKFRLIKLLRDSKIGISGVEISERLGINRVTMTKYLNIFSAEGVIGEKNIGNVNLWFVYEGIE` have recorded soluble fraction (log2) that is -1 or more?
Result: 0

Task: soluble fraction (log2) >= -1 for `HMGYDDLEPFDANGRLRWSDQELVLAFGRHRGATLRTLELNDPSYLRWLLSGNGPLEQQDIQRLEQILES` ?
Result: 0

Task: Confirm if soluble fraction (log2) reported for the sequence `HMEFNQAVQDVNELSMQYAKSDVLWPEFEPKVLAFAKNELSQMPPNQWKFALQTFYNGLKQAA` is -1 or above.
Result: 1

Task: Does the sequence `HMQGRIYLNPDLAEKLRAQYAAYPHWSYLLHTENLGALVRKTESLGPMPSYSTILRYMHANDMRKRNKP` have recorded soluble fraction (log2) that is -1 or more?
Result: 0

Task: API: above_or_equal(metric=soluble fraction (log2), cutoff=-1) for item `HMFPDRLRELRKGRNITLETLAEEMNKHLEPGQKPNTAAQIGNWERGDRSPSYIEVRKLADFFNVSMDFL`
Result: 1

Task: hey, is soluble fraction (log2) for this one >= -1? `HMKIELTDQQKSLVVDEWNKGEANPPSLLQLIRLAYPDQPHLDGRSKEGKAVKAFLATRDINPLA`
Result: 1

Task: In plain terms: is recorded soluble fraction (log2) at least -1 for `HMINPASEKQLSFANSLIAKKEGGTETLNHYLHNRKVSSLEELDRKDVSEIINALKFAKEVT` ?
Result: 1

Reference source: the domain aggregation screens of Martell et al. (2025)
